# systemName: human IDO1 (Homo sapiens, UniProt P14902)
# Sequence (P14902 whole entry): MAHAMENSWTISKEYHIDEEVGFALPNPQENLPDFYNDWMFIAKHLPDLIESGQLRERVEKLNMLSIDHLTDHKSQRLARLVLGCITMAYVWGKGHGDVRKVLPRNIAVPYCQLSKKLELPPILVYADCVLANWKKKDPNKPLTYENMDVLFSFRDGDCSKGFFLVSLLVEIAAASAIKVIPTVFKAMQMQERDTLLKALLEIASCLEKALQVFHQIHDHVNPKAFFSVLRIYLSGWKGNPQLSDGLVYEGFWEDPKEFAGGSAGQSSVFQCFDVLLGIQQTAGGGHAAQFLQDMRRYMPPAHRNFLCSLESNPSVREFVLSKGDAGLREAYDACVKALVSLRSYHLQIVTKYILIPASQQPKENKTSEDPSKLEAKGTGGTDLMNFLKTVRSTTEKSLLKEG
# protocolText: HEK293 cells stably expressing human IDO1, IDO inhibition assay (kynurenine, Ehrlich reagent, absorbance 490 nm)
# assayContext: 20 hours incubation, 500 nM reference standard = 100% inhibition, read-out: HEK Human IDO-1 Biological Activity (IC50)
pIC50: −log10 of the molar value.
Provide the reported pIC50 of each item.

Recorded pIC50 (compound CC(C(=O)Nc1ccc(Cl)cc1)C1CCC(c2ccncc2F)CC1 (single isomer, unassigned) [Example 318c] ): < 6.60

Recorded pIC50 (compound CC(=O)Nc1cc(C2CCC(C(C)C(=O)Nc3ccc(Cl)cc3)CC2)ccn1 (single isomer, unassigned) [Example 315b] ): > 7.30

Recorded pIC50 (compound COc1cc([C@H]2CC[C@@H]([C@H](C)C(=O)Nc3ccc(Cl)cc3)CC2)ccn1 (single isomer, unassigned) [Example 307f] ): > 7.30

Recorded pIC50 (compound Cc1cc(C2CCC(C(C)C(=O)Nc3ccc(Cl)cc3)CC2)ccn1 (single isomer, unassigned) [Example 309d] ): > 7.30

Recorded pIC50 (compound C[C@H](C(=O)Nc1ccc(Cl)cc1)[C@H]1CC[C@H](Oc2ccnc(C(F)(F)F)c2)CC1 (single isomer, unassigned) [Example 324a] ): > 6.60

Recorded pIC50 (compound CCC(C(=O)Nc1ccc(Cl)cc1)[C@H]1CC[C@@H](Oc2ccncc2)CC1 (single isomer, unassigned) [Example 306a] ): > 7.30

Origin of values: patent US11932601B2
